Would you kindly list AUC (ng/ml h) 0-8 h for each of these compounds?
protocol_summary: Oral bioavailability of hydrocodone conjugates in rats, LC/MS/MS
condition_details: oral, 1 mg/kg dose, hydrocodone plus hydromorphone
Where a SMILES comes first, the peptide text is derived from it. The star is where a group is joined. X1 = COc1ccc2c3c1O[C@H]1C(O*)=CC[C@H]4[C@@H](C2)N(C)CC[C@]314
Give bare numbers, in ng·h/mL.

# example entries with known answers
>  <compound>
CC[C@H](C)[C@H](NC(=O)[C@H](CC(=O)O)NC(=O)[C@@H](N)CC(=O)O)C(=O)OC1=CC[C@H]2[C@H]3Cc4ccc(OC)c5c4[C@@]2(CCN3C)[C@H]1O5 [DDI-HC, Asp-Asp-Ile-Hydrocodone]

>  <AUC (ng/ml h) 0-8 h / ng·h/mL>
17.4

$$$$
>  <compound>
CC[C@H](C)[C@H](NC(=O)[C@H](Cc1ccccc1)NC(=O)[C@H](Cc1ccccc1)NC(=O)[C@H](Cc1ccc(O)cc1)NC(=O)[C@@H](N)Cc1ccc(O)cc1)C(=O)OC1=CC[C@H]2[C@H]3Cc4ccc(OC)c5c4[C@@]2(CCN3C)[C@H]1O5 [YYFFI[SEQ ID NO: 8]-HC] (H-YYFFI-X1)

>  <AUC (ng/ml h) 0-8 h / ng·h/mL>
14.9

$$$$
>  <compound>
CC[C@H](C)[C@H](NC(=O)[C@H](Cc1ccc(O)cc1)NC(=O)[C@@H](N)Cc1ccc(O)cc1)C(=O)OC1=CC[C@H]2[C@H]3Cc4ccc(OC)c5c4[C@@]2(CCN3C)[C@H]1O5 [YYI-HC, Tyr-Tyr-Ile-Hydrocodone]

>  <AUC (ng/ml h) 0-8 h / ng·h/mL>
20.4

$$$$
>  <compound>
COc1ccc2c3c1O[C@H]1C(OC(=O)[C@H](Cc4ccccc4)NC(=O)[C@H](Cc4ccccc4)NC(=O)[C@H](Cc4ccccc4)NC(=O)[C@H](CCC(=O)O)NC(=O)[C@@H](N)CCC(=O)O)=CC[C@H]4[C@@H](C2)N(C)CC[C@]314 [EEFFF[SEQ ID NO: 3]-HC] (H-EEFFF-X1)

>  <AUC (ng/ml h) 0-8 h / ng·h/mL>
20.7

$$$$

[Q] Give the measured AUC (ng/ml h) 0-8 h of CC[C@H](C)[C@H](NC(=O)[C@H](Cc1ccccc1)NC(=O)[C@H](Cc1ccccc1)NC(=O)[C@H](CCC(=O)O)NC(=O)[C@@H](N)CCC(=O)O)C(=O)OC1=CC[C@H]2[C@H]3Cc4ccc(OC)c5c4[C@@]2(CCN3C)[C@H]1O5 [EEFFI[SEQ ID NO: 5]-HC] (H-EEFFI-X1) .
[A] 25.8

###

protocol_summary: Oral bioavailability of hydrocodone conjugates in rats, LC/MS/MS
condition_details: male, Sprague-Dawley, rat, plasma, po, 2 mg/kg
property_label: AUC (ng·h/mL)
Answers are plain numbers, in ng·h/mL.

[Q] Can you share its AUC? I mean this compound: COc1ccc2c3c1O[C@H]1C(=O)CC[C@H]4[C@@H](C2)N(C)CC[C@]314 [Hydrocodone, reference compound]
[A] 38.2

###

protocol_summary: Bolus intravenous bioavailability in rats, LC/MS/MS
condition_details: male, Sprague-Dawley, rat, plasma, iv, […]
property_label: Tmax (min)
Numbers only, in min.

[Q] // lookup Tmax for CC(Cc1ccccc1)NC(=O)C(N)CCCCN (stereo not shown)
[A] 4.98
